- Target desc: EcoRI (Escherichia coli)
- Construct: purchased Thermo Fisher Scientific ER0271
- Sequence (P00642 2-277): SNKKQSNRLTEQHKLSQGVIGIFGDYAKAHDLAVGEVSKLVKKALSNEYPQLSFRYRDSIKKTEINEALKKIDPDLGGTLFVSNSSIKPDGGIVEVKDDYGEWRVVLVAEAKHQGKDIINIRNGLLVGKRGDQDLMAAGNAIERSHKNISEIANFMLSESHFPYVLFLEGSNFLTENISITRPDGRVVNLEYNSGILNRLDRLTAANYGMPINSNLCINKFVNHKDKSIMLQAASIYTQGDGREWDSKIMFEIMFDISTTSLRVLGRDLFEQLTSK
- Assay type: biochemical
- Test context: all three enzymes, Nl-pBR322; read-out: range of IC50 values across EcoRI, HindIII and VspI
Observation type: IC50

>>> result("O=C(O)CN(CCN(CC(=O)O)CC(=O)O)CC(=O)O [EDTA]")
"12 to 17 µM"
